Attribution: patent US10844051B2

Biological target: recombinant human KRAS 12D mutant protein (Homo sapiens, UniProt P01116, G12D)
Sequence (P01116 1-188 isoform P01116-2 G12D): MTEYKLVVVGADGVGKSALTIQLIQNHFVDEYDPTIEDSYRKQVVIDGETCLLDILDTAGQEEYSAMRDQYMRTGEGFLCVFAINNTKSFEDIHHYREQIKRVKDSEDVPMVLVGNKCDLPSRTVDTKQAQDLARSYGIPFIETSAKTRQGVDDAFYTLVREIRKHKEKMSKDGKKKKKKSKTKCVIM
Assay: SPR analysis on amine-coupled KRAS (G12D mutant)
Conditions: PBS-T containing 1 μM GDP, steady-state
pKd: −log10 of the molar value.
measured-endpoint: pKd

(P) COc1ccc(CC/C(=C/C(=O)N2CCC(O)(c3ccccc3)CC2)c2ccccc2)cc1F
(Q) O=C(Cc1c[nH]c2ccccc12)NCc1nc(-c2ccccc2)c(-c2ccccc2)o1
Exercise: Pick one, P or Q : lowest reported pKd. // return label of chosen record
Key: Q

----------
Biological target: human GATA3 (Homo sapiens)
Construct: expressed in transfected cells; host or cells: IHH
Sequence (P23771 whole entry): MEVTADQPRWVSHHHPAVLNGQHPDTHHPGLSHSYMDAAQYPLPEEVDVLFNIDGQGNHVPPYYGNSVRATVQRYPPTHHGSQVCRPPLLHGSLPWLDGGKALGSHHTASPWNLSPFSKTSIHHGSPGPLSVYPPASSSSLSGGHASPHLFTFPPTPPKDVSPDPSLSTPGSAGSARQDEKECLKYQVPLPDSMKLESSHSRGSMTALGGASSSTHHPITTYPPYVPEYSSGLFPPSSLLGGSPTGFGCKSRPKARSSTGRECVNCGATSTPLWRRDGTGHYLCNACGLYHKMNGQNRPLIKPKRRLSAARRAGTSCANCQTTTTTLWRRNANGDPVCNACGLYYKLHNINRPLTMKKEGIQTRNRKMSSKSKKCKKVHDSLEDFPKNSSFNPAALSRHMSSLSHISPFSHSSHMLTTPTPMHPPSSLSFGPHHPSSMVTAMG
Test: GATA3-dependent reporter assay in IHH cells
Assay type: cell-based
Conditions: 48 hours, 10 μM
measured-endpoint: activity against GATA3 in GATA3-dependent reporter assay

Example cases with answers are listed next.
[[record]]
compound = "Oc1cccc(-c2nc(CCCc3c[nH]c4ccccc34)oc2-c2cccc(O)c2)c1 [Compound 676]"
target_desc = "human GATA3 (Homo sapiens)"
assay_value = "inactive against GATA3"

[[record]]
compound = "Fc1cccc(-c2nc(CCCc3c[nH]c4ccccc34)oc2-c2cccc(F)c2)c1 [Compound 673]"
target_desc = "human GATA3 (Homo sapiens)"
assay_value = "inactive against GATA3"

[[record]]
compound = "Oc1cccc(-c2nc(CCc3c[nH]c4ccccc34)oc2-c2cccc(O)c2)c1 [Compound 675]"
target_desc = "human GATA3 (Homo sapiens)"
assay_value = "inactive against GATA3"

[[record]]
compound = "FC(F)(F)c1cccc(Cc2nc(-c3ccccc3)c(-c3ccccc3)o2)c1 [Compound 687]"
target_desc = "human GATA3 (Homo sapiens)"
assay_value = "inactive against GATA3"

[[record]]
compound = "Fc1cccc(-c2nc(Cc3c[nH]c4ccccc34)oc2-c2cccc(F)c2)c1 [Compound 650]"
target_desc = "human GATA3 (Homo sapiens)"
assay_value = "active against GATA3"

[[record]]
compound = "FC(F)(F)c1cccc(/C=C/c2nc(-c3ccccc3)c(-c3ccccc3)o2)c1 [Compound 693]"
target_desc = "human GATA3 (Homo sapiens)"
assay_value = "inactive against GATA3"

[[record]]
compound = "c1coc(-c2nc(CCCc3c[nH]c4ccccc34)[nH]c2-c2ccco2)c1 [Compound 817]"
target_desc = "human GATA3 (Homo sapiens)"
assay_value = "inactive against GATA3"

[[record]]
compound = "C(=C\\c1nc(-c2ccccc2)c(-c2ccccc2)o1)/c1ccoc1 [Compound 686]"
target_desc = "human GATA3 (Homo sapiens)"
assay_value = "active against GATA3"

[[record]]
compound = "O=C(Cc1c[nH]c2ccccc12)NCc1nc(-c2ccccc2)c(-c2ccccc2)o1 [Compound 784]"
target_desc = "human GATA3 (Homo sapiens)"
assay_value = "inactive against GATA3"


Exercise: For human GATA3 (Homo sapiens), provide activity against GATA3 in GATA3-dependent reporter assay of c1ccc(-c2nc(CNCCc3c[nH]c4ccccc34)oc2-c2ccccc2)cc1 [Compound 795] please.
Key: inactive against GATA3

----------
Biological target: human GATA2 (Homo sapiens, UniProt P23769)
Construct: expressed in transfected cells; host or cells: IHH
Sequence (P23769 whole entry): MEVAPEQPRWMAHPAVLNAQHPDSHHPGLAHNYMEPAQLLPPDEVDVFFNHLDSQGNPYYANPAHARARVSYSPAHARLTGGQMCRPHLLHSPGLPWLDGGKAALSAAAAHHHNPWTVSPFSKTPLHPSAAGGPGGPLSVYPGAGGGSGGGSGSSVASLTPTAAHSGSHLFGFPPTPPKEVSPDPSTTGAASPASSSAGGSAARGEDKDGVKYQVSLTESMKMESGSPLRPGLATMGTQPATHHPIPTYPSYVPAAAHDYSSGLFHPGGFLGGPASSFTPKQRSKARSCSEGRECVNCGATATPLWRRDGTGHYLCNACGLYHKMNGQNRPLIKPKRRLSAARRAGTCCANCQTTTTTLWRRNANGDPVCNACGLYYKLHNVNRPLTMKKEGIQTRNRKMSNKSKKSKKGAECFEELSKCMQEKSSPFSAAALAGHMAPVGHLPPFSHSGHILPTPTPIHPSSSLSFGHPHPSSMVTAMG
Experiment: GATA2-dependent reporter assay in IHH cells
Assay type: cell-based
Conditions: GATA-Luc reporter, 48 h
measured-endpoint: GATA2 inhibition in GATA2-dependent reporter assay

Illustrative cases are given below, each with its answer.
[[record]]
molecule = "O=C1Nc2ccccc2C1CCCc1nc(-c2cccc(F)c2)c(-c2cccc(F)c2)o1 (stereo not drawn) [Compound 770]"
assay_value = "GATA2 inhibitors"

[[record]]
molecule = "FC(F)(F)c1cccc(Cc2nc(-c3ccccc3)c(-c3ccccc3)o2)c1 [Compound 687]"
assay_value = "GATA2 inhibitors"

[[record]]
molecule = "Cc1ccc(/C(=C\\C(=O)N2CCC(O)(c3ccccc3)CC2)CCc2ccccc2)cc1 [Compound 870]"
assay_value = "GATA2 inhibitors"

[[record]]
molecule = "O=C(/C=C(/Cc1ccccc1)c1ccccc1)N1CCC(O)(c2ccccc2)CC1 [Compound 881]"
assay_value = "GATA2 inhibitors"

[[record]]
molecule = "O=C(/C=C(/CCc1ccccc1)c1cccc(C(F)(F)F)c1)N1CCC(O)(c2ccccc2)CC1 [Compound 869]"
assay_value = "GATA2 inhibitors"


Exercise: Tell me the measured GATA2 inhibition in GATA2-dependent reporter assay of O=C(/C=C(/CCc1cccc(F)c1)c1ccccc1)N1CCC(O)(c2ccccc2)CC1 [Compound 860] , please.
Key: GATA2 inhibitors

Exercise: GATA2 inhibition in GATA2-dependent reporter assay lookup needed for O=C1Nc2ccccc2C1CCc1nc(-c2cccc(F)c2)c(-c2cccc(F)c2)o1 (stereo not drawn) [Compound 866] , thanks.
Key: GATA2 inhibitors

Exercise: Given Cc1ccc(/C(=C\C(=O)N2CCC(O)(c3ccccc3)CC2)CCc2cccc(F)c2)cc1 [Compound 882] , state its recorded GATA2 inhibition in GATA2-dependent reporter assay.
Key: GATA2 inhibitors

Exercise: Entry c1coc(-c2nc(CCCc3c[nH]c4ccccc34)oc2-c2ccco2)c1 [Compound 831] has what GATA2 inhibition in GATA2-dependent reporter assay?
Key: GATA2 inhibitors

----------
Molecular target: human STING (hSTING) (Homo sapiens)
Construct: expressed in transfected cells; host or cells: 293T
Sequence (Q86WV6 whole entry H232R): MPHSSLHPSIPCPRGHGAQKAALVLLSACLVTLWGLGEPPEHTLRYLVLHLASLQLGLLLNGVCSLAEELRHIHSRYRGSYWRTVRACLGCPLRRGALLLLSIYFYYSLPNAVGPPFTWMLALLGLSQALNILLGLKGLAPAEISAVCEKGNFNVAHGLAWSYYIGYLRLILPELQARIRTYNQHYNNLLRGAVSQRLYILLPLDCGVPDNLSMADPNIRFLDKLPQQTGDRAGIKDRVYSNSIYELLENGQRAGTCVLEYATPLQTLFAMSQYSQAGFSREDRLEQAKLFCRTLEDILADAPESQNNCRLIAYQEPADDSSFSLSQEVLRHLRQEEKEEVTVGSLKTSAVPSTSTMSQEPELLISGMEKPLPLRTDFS
Experiment: hSTING ISRE-luc reporter assay in 293T cells
Assay type: cell-based
Conditions: 24 hours
measured-endpoint: activation of hSTING in ISRE-luc reporter assay

Answered examples (9):
[[record]]
molecular_string = "FC(F)(F)c1ccccc1-c1nc(CCc2c[nH]c3ccccc23)oc1-c1ccccc1C(F)(F)F"
target_desc = "human STING (hSTING) (Homo sapiens)"
assay_value = "activate hSTING"

[[record]]
molecular_string = "Fc1cccc(-c2nc(CCCc3c[nH]c4ccccc34)oc2-c2cccc(F)c2)c1"
target_desc = "human STING (hSTING) (Homo sapiens)"
assay_value = "activate hSTING"

[[record]]
molecular_string = "COc1cccc(-c2oc(CCCc3c[nH]c4ccccc34)nc2-c2ccc[nH]2)c1"
target_desc = "human STING (hSTING) (Homo sapiens)"
assay_value = "activate hSTING"

[[record]]
molecular_string = "Oc1ccc(-c2nc(Cc3c[nH]c4ccccc34)oc2-c2ccc(O)cc2)cc1"
target_desc = "human STING (hSTING) (Homo sapiens)"
assay_value = "activate hSTING"

[[record]]
molecular_string = "FC(F)(F)c1ccc(-c2nc(Cc3c[nH]c4ccccc34)oc2-c2ccc(C(F)(F)F)cc2)cc1"
target_desc = "human STING (hSTING) (Homo sapiens)"
assay_value = "activate hSTING"

[[record]]
molecular_string = "FC(F)(F)c1cccc(-c2nc(Cc3c[nH]c4ccccc34)oc2-c2cccc(C(F)(F)F)c2)c1"
target_desc = "human STING (hSTING) (Homo sapiens)"
assay_value = "activate hSTING"

[[record]]
molecular_string = "Fc1cccc(-c2oc(Cc3c[nH]c4ccccc34)nc2-c2ccco2)c1"
target_desc = "human STING (hSTING) (Homo sapiens)"
assay_value = "activate hSTING"

[[record]]
molecular_string = "FC(F)(F)c1ccc(-c2nc(CCc3c[nH]c4ccccc34)oc2-c2ccc(C(F)(F)F)cc2)cc1"
target_desc = "human STING (hSTING) (Homo sapiens)"
assay_value = "activate hSTING"

[[record]]
molecular_string = "Fc1cccc(-c2oc(CCCc3c[nH]c4ccccc34)nc2-c2ccco2)c1"
target_desc = "human STING (hSTING) (Homo sapiens)"
assay_value = "activate hSTING"


Exercise: Would you mind telling me what activation of hSTING in ISRE-luc reporter assay value was observed for `COc1cccc(-c2nc(CCc3c[nH]c4ccccc34)oc2-c2cccc(OC)c2)c1` ?
Key: activate hSTING

----------
Molecular target: ETV1 (Homo sapiens, UniProt P50549)
Construct: expressed in transfected cells; host or cells: HEK293
Sequence (P50549 whole entry): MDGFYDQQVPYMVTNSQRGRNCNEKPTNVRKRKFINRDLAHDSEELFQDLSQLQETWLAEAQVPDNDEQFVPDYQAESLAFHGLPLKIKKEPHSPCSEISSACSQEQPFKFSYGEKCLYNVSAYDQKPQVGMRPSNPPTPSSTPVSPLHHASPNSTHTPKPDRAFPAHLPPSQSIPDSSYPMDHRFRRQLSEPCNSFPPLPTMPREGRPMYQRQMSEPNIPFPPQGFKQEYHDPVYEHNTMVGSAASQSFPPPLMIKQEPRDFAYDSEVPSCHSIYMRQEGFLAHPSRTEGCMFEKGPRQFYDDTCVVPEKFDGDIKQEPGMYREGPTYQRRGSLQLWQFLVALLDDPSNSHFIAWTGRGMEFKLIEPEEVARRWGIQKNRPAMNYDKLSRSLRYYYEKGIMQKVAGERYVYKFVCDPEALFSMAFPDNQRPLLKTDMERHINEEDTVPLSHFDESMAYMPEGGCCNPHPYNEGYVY
Experiment: ETV1-dependent reporter assay in HEK293 cells
Type: cell-based
Settings: 48 hours
measured-endpoint: ETV1 inhibition in ETV1-dependent reporter assay

Worked examples follow.
[[record]]
molecule = "Cn1cc(Cc2nc(-c3ccccc3)c(-c3ccccc3)o2)c2ccccc21"
assay_value = "ETV1 inhibitors"

[[record]]
molecule = "Cc1[nH]c2ccccc2c1Cc1nc(-c2ccccc2)c(-c2ccccc2)o1"
assay_value = "ETV1 inhibitors"

[[record]]
molecule = "FC(F)(F)c1cccc(-c2nc(Cc3c[nH]c4ccccc34)oc2-c2cccc(C(F)(F)F)c2)c1"
assay_value = "ETV1 inhibitors"

[[record]]
molecule = "COc1ccc(-c2nc(Cc3c[nH]c4ccccc34)oc2-c2ccc(O)cc2)cc1"
assay_value = "ETV1 inhibitors"

[[record]]
molecule = "Cc1cccc(-c2nc(Cc3c[nH]c4ccccc34)oc2-c2cccc(C)c2)c1"
assay_value = "ETV1 inhibitors"

[[record]]
molecule = "Oc1cccc(-c2nc(Cc3c[nH]c4ccccc34)oc2-c2cccc(O)c2)c1"
assay_value = "ETV1 inhibitors"

[[record]]
molecule = "COc1cccc(-c2nc(CCc3c[nH]c4ccccc34)oc2-c2cccc(OC)c2)c1"
assay_value = "ETV1 inhibitors"

[[record]]
molecule = "Clc1ccc(-c2nc(Cc3c[nH]c4ccccc34)oc2-c2ccc(Cl)cc2)cc1"
assay_value = "ETV1 inhibitors"

[[record]]
molecule = "c1coc(-c2nc(Cc3c[nH]c4ccccc34)[nH]c2-c2ccco2)c1"
assay_value = "ETV1 inhibitors"

[[record]]
molecule = "c1ccc(-c2nc(Cc3c[nH]c4ccccc34)oc2-c2ccccc2)cc1"
assay_value = "ETV1 inhibitors"


Exercise: So what ETV1 inhibition in ETV1-dependent reporter assay did `Oc1cccc(-c2nc(CCc3c[nH]c4ccccc34)oc2-c2cccc(O)c2)c1` get with ETV1 (Homo sapiens, UniProt P50549)?
Key: ETV1 inhibitors

Exercise: Form entry - test system: ETV1 (Homo sapiens, UniProt P50549); read-out: ETV1 inhibition in ETV1-dependent reporter assay; molecule: `Fc1ccc2[nH]cc(Cc3nc(-c4ccccc4)c(-c4ccccc4)o3)c2c1`
Key: ETV1 inhibitors

Exercise: Which measured ETV1 inhibition in ETV1-dependent reporter assay belongs to `Cc1ccc(-c2nc(Cc3c[nH]c4ccccc34)oc2-c2ccc(C)cc2)cc1` , tested on ETV1 (Homo sapiens, UniProt P50549)?
Key: ETV1 inhibitors

Exercise: Give recorded ETV1 inhibition in ETV1-dependent reporter assay with ETV1 (Homo sapiens, UniProt P50549) for the following molecule: `Fc1cccc(-c2oc(Cc3c[nH]c4ccccc34)nc2-c2ccco2)c1`
Key: ETV1 inhibitors

Exercise: Write down the reported ETV1 inhibition in ETV1-dependent reporter assay of `FC(F)(F)c1ccc(-c2nc(Cc3c[nH]c4ccccc34)oc2-c2ccc(C(F)(F)F)cc2)cc1` , test system: ETV1 (Homo sapiens, UniProt P50549).
Key: ETV1 inhibitors
